Would you kindly list percent of DMSO control GFP for each of these compounds?
Assay: rapamycin-like changes in RPL19A-GFP expression – cell-based, S. cerevisiae, multiplex flow cytometry, primary screen (AID 1862);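 further: lower values mimic rapamycin by blocking the RPL19A rise seen in DMSO cells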
Experimental setup: S. cerevisiae RPL19A-GFP strain, flow cytometry fluorescence, 3 h; at 10 µM; active compounds read low
Results filed as inconclusive are left out.
One number for each entry, in %.

Worked examples, 2 compounds total:
[
  {
    "Compound": "CC(C)COCC1CC2(CC(C)(c3csc(N)n3)OC2=O)C(=O)O1 (configuration not stated)",
    "Unit info": "%",
    "Readout number": 105
  },
  {
    "Compound": "CCCC(=O)Nc1ncnc2c1ncn2[C@@H]1O[C@@H]2COP(=O)(O)O[C@H]2[C@H]1OC(=O)CCC",
    "Unit info": "%",
    "Readout number": 97.7
  }
]

Give measured percent of DMSO control GFP for every item shown.
1. CCc1nc(N)nc(N)c1-c1ccc(Cl)cc1
2. O=c1c2ccccc2nc2n1CCCN2
3. N=c1nc(N2CCCCC2)cc(N)n1O

92.2
103
90.9

Give measured percent of DMSO control GFP for every item shown.
1. CC1=NN(c2ccccc2)C(=O)C1
2. O=C(CCCn1c(=O)oc2ccccc21)N1CCN(c2ccc(F)cc2)CC1

1: 108; 2: 101

Cited source: PubChem BioAssay
